// reported EC50 hNPY2R 0.5% hP (CreLuc) per item
Target: T1, NPY2 receptor (human (printed as hNPY2R), UniProt P49146 1-381)
T1 sequence (looked up): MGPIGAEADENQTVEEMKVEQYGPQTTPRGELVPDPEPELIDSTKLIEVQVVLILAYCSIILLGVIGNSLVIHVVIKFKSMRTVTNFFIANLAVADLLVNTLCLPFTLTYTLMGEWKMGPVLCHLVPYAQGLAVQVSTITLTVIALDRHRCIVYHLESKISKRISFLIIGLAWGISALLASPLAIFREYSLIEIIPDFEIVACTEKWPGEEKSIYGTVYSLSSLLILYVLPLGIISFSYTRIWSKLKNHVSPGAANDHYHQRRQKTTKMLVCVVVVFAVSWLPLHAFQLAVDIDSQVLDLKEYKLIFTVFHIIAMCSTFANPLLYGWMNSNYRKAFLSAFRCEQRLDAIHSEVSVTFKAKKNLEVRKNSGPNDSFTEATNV
Assay: cell-based or functional assay
Starred links: 1 amine or outer side, 2 acyl side, 3 side chain; linkers in the order of their positions; H or OH if unused. Non-standard residues stand in square brackets, D forms with d. Groups on a side chain read outwards from the residue. No end group written: not given here. *: point of attachment. C20 diacid = O=C(O)CCCCCCCCCCCCCCCCCCC(=O)*; C18 diacid = O=C(O)CCCCCCCCCCCCCCCCC(=O)*; γGlu = O=C(O)[C@H](CCC(=O)[*:2])N[*:1]; εLys = N[C@@H](CCCCN[*:1])C(=O)[*:2]; AEEA = NCCOCCOCC(=O)O; Aib = CC(C)(N)C(=O)O
Write it as a number; the unit nM goes unstated.

binder	EC50 hNPY2R 0.5% hP (CreLuc) [nM]
YXEGTFTSDYSIXLEKQAQXAFVEWLIKGGPSYGASLRHYYNWLTRQRY (Aib at 2, 13, 20; K28 side chain carries C20DA-gGlu-gGlu-gGlu-gGlu-gGlu-gGlu-eLys; C-terminal amide) [Compound 232]	15.3
YXEGTFTSDYSIXLEKQAQXAFVQWLIKGGPSEGASLRHYYNWLTRQRY (Aib at 2, 13, 20; K28 side chain carries C18DA-E-E-E-E-E-E-eLys (SEQ ID NO: 643); C-terminal amide) [Compound 249]	17.8
YXEGTFTSDYSIXLEKQAQXAFVEWLIKGGPSSGASLRXYYNWLTRQRY (Aib at 2, 13, 20, 39; K28 side chain carries C20DA-gGlu-gGlu-gGlu-gGlu-gGlu-gGlu-eLys; C-terminal amide) [Compound 182]	70.4
Y[Aib]EGTFTSDYSI[Aib]LEKQAQ[Aib]AFVEWLIK([AEEA-AEEA-γGlu-γGlu-γGlu-γGlu-C20 diacid])GGPSSPASLRHYYNWLTRQRY-NH2 (also: TFA salt) [Compound 175]	10.5

[ask] Name the reported EC50 hNPY2R 0.5% hP (CreLuc) value associated with the binder Y[Aib]EGTFTSDYSI[Aib]LEKQAQ[Aib]AFVQWLIK([γGlu-γGlu-γGlu-γGlu-γGlu-γGlu-C18 diacid])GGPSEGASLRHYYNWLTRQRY-NH2 (also: TFA salt) [Compound 252]
[reply] 14.5

[ask] Subsequent entry: YXEGTFTSDYSIXLEKQAQXAFVEWLIKGGPSEGVSLRHYYNWLTRQRY (Aib at 2, 13, 20; K28 side chain carries C20DA-gGlu-gGlu-gGlu-gGlu-gGlu-gGlu-eLys; C-terminal amide) [Compound 241]
[reply] 16.6

[ask] Subsequent entry: YXEGTFTSDYSIXLEKQAQXEFVEWLIKGGPSEGASLRHYYNWLTRQRY (Aib at 2, 13, 20; K28 side chain carries C18DA-gGlu-gGlu-gGlu-gGlu-gGlu-gGlu-eLys; C-terminal amide) [Compound 255]
[reply] 17.3

[ask] Subsequent entry: YXEGTFTSDYSIXLEKQAQXAFVEWLIKGGPSTGASLRHYYNWLTRQRY (Aib at 2, 13, 20; K28 side chain carries C20DA-gGlu-gGlu-gGlu-gGlu-gGlu-gGlu-eLys; C-terminal amide) [Compound 244]
[reply] 13.5

[ask] Subsequent entry: YXEGTFTSDYSIXLEKQAQDAFVEWLIKGGPSSGASLRHYYNWLTRQRY (Aib at 2, 13; D-Asp at 20; K28 side chain carries C20DA-gGlu-gGlu-gGlu-gGlu-gGlu-gGlu-eLys; C-terminal amide) [Compound 211]
[reply] 11.2

[ask] Subsequent entry: YXEGTFTSDYSIXLEKQAQXAFVEWLIKGGPSSGASLRHYYNWLTRQRY (Aib at 2, 13, 20; K28 side chain carries C20DA-gGlu-gGlu-gGlu-gGlu-gGlu-OEG-OEG; C-terminal amide) [Compound 229]
[reply] 10.8

[ask] Subsequent entry: YXEGTFTSDYSIXLEKQAQXAFVEWLIKGGPSEGESLRHYYNWLTRQRY (Aib at 2, 13, 20; K28 side chain carries C20DA-gGlu-gGlu-gGlu-gGlu-gGlu-gGlu-eLys; C-terminal amide) [Compound 237]
[reply] 18

[ask] Subsequent entry: Y[Aib]EGTFTSDYSI[Aib]LEKQAQ[Aib]AFVQWLIK([εLys-Glu-Glu-Glu-Glu-Glu-C20 diacid])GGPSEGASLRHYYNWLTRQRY-NH2 (also: TFA salt) [Compound 240]
[reply] 10.7

[ask] Subsequent entry: Y[Aib]EGTFTSDYSI[Aib]LEKQAQ[Aib]AFVQWLIK([εLys-γGlu-γGlu-γGlu-γGlu-γGlu-C20 diacid])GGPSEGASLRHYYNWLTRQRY-NH2 (also: TFA salt) [Compound 242]
[reply] 7.54

[ask] Subsequent entry: YXEGTFTSDYSIXLELQAQXAFVEWLIKGGPSSGASLRHYYNWLTRQRY (Aib at 2, 13, 20; K28 side chain carries C20DA-gGlu-gGlu-gGlu-gGlu-gGlu-gGlu-eLys; C-terminal amide) [Compound 209]
[reply] 35.2

[ask] Subsequent entry: Y[Aib]EGTFTSDYSI[Aib]LEKQAQ[Aib]AFVQWLIK([AEEA-AEEA-Glu-Glu-Glu-C18 diacid])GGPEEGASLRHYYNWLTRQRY-NH2 (also: TFA salt) [Compound 188]
[reply] 16.9

[ask] Subsequent entry: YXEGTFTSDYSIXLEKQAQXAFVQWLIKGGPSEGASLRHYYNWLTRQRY (Aib at 2, 13, 20; K28 side chain carries C18DA-gGlu-gGlu-gGlu-gGlu-gGlu-OEG-OEG; C-terminal amide) [Compound 246]
[reply] 12.8
